testDetails: protein stability index of a GFP-peptide fusion (yeast GPS) (PSI 1-4); higher = more stable; sorted into four equal gates, so the index is relative within each strain
conditionDetails: doa10∆
# protein stability index per entry

>  <sequenceString>
KVVKTPGGILRAQHVKK [RPL34A]

>  <protein stability index>
2.76

$$$$
>  <sequenceString>
GSIQKGMPHKFYQGKTG [RPL21A]

>  <protein stability index>
3.07

$$$$
>  <sequenceString>
NPNSTAITADLGSSEAE [YGL172W/NUP49]

>  <protein stability index>
2.56

$$$$
>  <sequenceString>
SKGYVKTQFSWQYYYYT [RPS10A]

>  <protein stability index>
2.81

$$$$
>  <sequenceString>
YKFLDQNSDASTLEPTL [YIL149C/MLP2]

>  <protein stability index>
2.24

$$$$
>  <sequenceString>
SSTDIPSYTHVLISKLS [RRI1]

>  <protein stability index>
2.13

$$$$
>  <sequenceString>
KMLNEFVKKTSEEIDSL [SMC2]

>  <protein stability index>
2.61

$$$$
>  <sequenceString>
NASGNKRSGVIETVDDK [ITC1]

>  <protein stability index>
2.55

$$$$
>  <sequenceString>
LYYRPHINKKSQLDLFL [GRR1]

>  <protein stability index>
1.78

$$$$
>  <sequenceString>
SPPIIDLFSNNNYNSRI [MED1]

>  <protein stability index>
2.86

$$$$
>  <sequenceString>
NLQAKPLVGKPKTELTK [YAR002W/NUP60]

>  <protein stability index>
2.72

$$$$
>  <sequenceString>
FAIRDDRDHINPDDLMK [RPT4]

>  <protein stability index>
2.65

$$$$
>  <sequenceString>
HYLVNLTSPAFGPHVDV [GRR1]

>  <protein stability index>
2.27

$$$$
>  <sequenceString>
NKGLVVSPYDYNHKRVS [DIB1]

>  <protein stability index>
2.39

$$$$
>  <sequenceString>
KSTYRTPNFDDVLKENN [RIP1]

>  <protein stability index>
1.54

$$$$
>  <sequenceString>
SLQYIERQQDELENFLD [YJL041W/NSP1]

>  <protein stability index>
3.1

$$$$
>  <sequenceString>
AFGFVDRTLPHFSKDDY [RPO21]

>  <protein stability index>
2.81

$$$$
>  <sequenceString>
FLTVSKLWAEIIVKILY [GRR1]

>  <protein stability index>
1.55

$$$$
>  <sequenceString>
LGDMENNLEKYPFRYKT [RTT102]

>  <protein stability index>
3.44

$$$$
>  <sequenceString>
RNDSTVNDSVISAPSME [BRN1]

>  <protein stability index>
2.71

$$$$
>  <sequenceString>
GSMFSGDNTSDVDMEDR [RRI1]

>  <protein stability index>
2.01

$$$$
>  <sequenceString>
YACISSRPGQSGRCDGY [RPS8A]

>  <protein stability index>
3.02

$$$$
>  <sequenceString>
FATTKAECISLICSIGL [ECM29]

>  <protein stability index>
1.5

$$$$
>  <sequenceString>
LLIATNLKEYNKFMSIF [SRB8]

>  <protein stability index>
1.64

$$$$
>  <sequenceString>
NGAFQNSSNLSYNNTGI [RRP4]

>  <protein stability index>
2.58

$$$$
>  <sequenceString>
KLYDAKRYTSEGTRNRF [YMR129W/POM152]

>  <protein stability index>
3.02

$$$$
>  <sequenceString>
STMTEPVKQSFIRKYIN [GAL11]

>  <protein stability index>
2.56

$$$$
>  <sequenceString>
IAAIIGRLNTLVISLAA [IRR1]

>  <protein stability index>
2.1

$$$$
>  <sequenceString>
HHRIFDSSAHFKGALTI [YMR129W/POM152]

>  <protein stability index>
2.56

$$$$
>  <sequenceString>
IEKGSTFGINLIYVNPF [FAS1]

>  <protein stability index>
2.58

$$$$
>  <sequenceString>
SQSSAAAGASVDDKRRN [RPN6]

>  <protein stability index>
3.38

$$$$
>  <sequenceString>
NDPAREKFSSFIESIVV [SNF12]

>  <protein stability index>
2.78

$$$$
>  <sequenceString>
QSEHLEAVVDQDVQRTC [FAS1]

>  <protein stability index>
3.47

$$$$
>  <sequenceString>
KPNNTANTGGGLFGANS [YGL172W/NUP49]

>  <protein stability index>
3.16

$$$$
>  <sequenceString>
KVGIWPYFDYIFNDILA [YJL039C/NUP192]

>  <protein stability index>
1.67

$$$$
>  <sequenceString>
LDNSKMDYHFIFSYLQF [RGR1]

>  <protein stability index>
2.45

$$$$
>  <sequenceString>
KLHHDLKLCLGDHSSVP [YMR129W/POM152]

>  <protein stability index>
2.83

$$$$
>  <sequenceString>
SKLDYIFKDKEKLVSDL [SMC1]

>  <protein stability index>
2.89

$$$$
>  <sequenceString>
ILLRYHHNDISNDSQSH [YCG1]

>  <protein stability index>
1.65

$$$$
>  <sequenceString>
IREKVAKQALDLYHFAL [SNF2]

>  <protein stability index>
2.52

$$$$
>  <sequenceString>
RKWVIFITKHLPLLILE [NUT1]

>  <protein stability index>
1.7

$$$$
>  <sequenceString>
EKLNKTDENTPSADGAD [ITC1]

>  <protein stability index>
3.35

$$$$
>  <sequenceString>
KFHSELQYLDKHIKNLE [RPN12]

>  <protein stability index>
3.14

$$$$
>  <sequenceString>
ELSDNEENFEATRTLVA [YCG1]

>  <protein stability index>
3.13

$$$$
>  <sequenceString>
IRDSGDRIDLRYSKRAG [RPO21]

>  <protein stability index>
3.43

$$$$
>  <sequenceString>
CRVCSSHTGLVRKYDLN [RPS29B]

>  <protein stability index>
2.56

$$$$
>  <sequenceString>
TKGDTSKATGAPSANQG [RTT102]

>  <protein stability index>
3.18

$$$$
>  <sequenceString>
APPQRPRFNRENKVSPA [RPS26A]

>  <protein stability index>
3.38

$$$$
>  <sequenceString>
IHNTKLPAYSGEIGDFF [POP1]

>  <protein stability index>
3.07

$$$$
>  <sequenceString>
NIQGITKPAIRRLARRG [HHF1]

>  <protein stability index>
3.27

$$$$
>  <sequenceString>
EAARICANKYMTTVSGR [RPL10]

>  <protein stability index>
2.24

$$$$
